This listing pairs compounds with measured IC50.
target: hERG channel (Homo sapiens (Human), UniProt Q12809); assay: hERG Patch Clamp Assay; format: cell-based; settings: CHO cell transfected with hERG gene, automated Qpatch HT system
Sequence (Q12809 whole entry): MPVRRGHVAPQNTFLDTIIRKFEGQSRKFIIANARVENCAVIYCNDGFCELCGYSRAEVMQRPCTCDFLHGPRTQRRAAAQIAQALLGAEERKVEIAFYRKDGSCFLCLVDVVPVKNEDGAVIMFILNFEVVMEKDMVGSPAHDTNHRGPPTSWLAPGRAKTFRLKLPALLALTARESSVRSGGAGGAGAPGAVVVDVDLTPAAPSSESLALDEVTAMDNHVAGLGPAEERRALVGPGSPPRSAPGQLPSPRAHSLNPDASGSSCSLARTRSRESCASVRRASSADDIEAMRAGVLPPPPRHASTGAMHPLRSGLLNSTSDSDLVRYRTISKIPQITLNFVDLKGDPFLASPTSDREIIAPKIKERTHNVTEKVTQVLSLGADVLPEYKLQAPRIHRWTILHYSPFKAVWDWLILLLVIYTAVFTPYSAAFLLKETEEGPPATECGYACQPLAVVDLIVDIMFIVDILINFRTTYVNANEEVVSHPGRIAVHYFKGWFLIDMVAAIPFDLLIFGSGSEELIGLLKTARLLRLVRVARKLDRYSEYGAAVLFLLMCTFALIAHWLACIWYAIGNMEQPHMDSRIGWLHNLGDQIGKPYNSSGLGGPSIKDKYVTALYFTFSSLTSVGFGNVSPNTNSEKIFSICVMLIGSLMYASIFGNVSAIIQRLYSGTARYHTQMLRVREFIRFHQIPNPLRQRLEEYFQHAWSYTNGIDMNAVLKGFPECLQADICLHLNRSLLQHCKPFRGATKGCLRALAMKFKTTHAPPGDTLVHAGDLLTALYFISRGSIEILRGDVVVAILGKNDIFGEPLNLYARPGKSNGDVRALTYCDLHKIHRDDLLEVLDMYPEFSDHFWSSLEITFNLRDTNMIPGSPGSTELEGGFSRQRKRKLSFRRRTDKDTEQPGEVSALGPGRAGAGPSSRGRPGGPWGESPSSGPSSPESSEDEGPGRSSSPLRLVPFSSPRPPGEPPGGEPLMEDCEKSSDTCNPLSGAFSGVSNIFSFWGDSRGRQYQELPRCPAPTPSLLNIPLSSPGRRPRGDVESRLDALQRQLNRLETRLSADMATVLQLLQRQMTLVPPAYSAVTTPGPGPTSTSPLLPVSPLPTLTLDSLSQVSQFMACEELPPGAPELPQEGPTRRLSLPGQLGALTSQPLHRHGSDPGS
Give the number; µM is assumed, so skip it.

Consider the worked cases shown below.
NC1=N[C@@]2(c3cc(NC(=O)c4ccc(OC(F)F)cn4)ccc3F)COCC[C@H]2CS1 [Comparator 4, reference compound] ... 0.5
C[C@H]1C[C@H]2CSC(N)=N[C@@]2(c2cc(NC(=O)c3ccc(Cl)cn3)ccc2F)CO1 [Comparator 7, reference compound] ... 0.2
C[C@H]1C[C@H]2CSC(N)=N[C@@]2(c2nc(NC(=O)c3ccc(Cl)cn3)cs2)CO1 ... 9
C[C@H]1C[C@H]2CSC(N)=N[C@@]2(c2nc(NC(=O)c3cnc(OC(F)F)cn3)cs2)CO1 ... 23.6
C[C@H]1C[C@H]2CSC(N)=N[C@@]2(c2nc(NC(=O)c3ccc(OC(F)F)cn3)cs2)CO1 ... 9.9

Then there is this compound:
Ask: What does the record list as IC50 for C[C@H]1C[C@H]2CSC(N)=N[C@@]2(c2nc(NC(=O)c3ccc(OC(F)F)cn3)ccc2F)CO1 [Comparator 3, reference compound] ?
Reply: 0.4
